Measured values drawn from patent US20160297884A1 for this set.

Biological target: T1, Human BCMA (human, UniProt Q02223 1-54, limits assumed)
T1 construct: also called huBCMA; B-cell maturation antigen
T1 sequence (looked up): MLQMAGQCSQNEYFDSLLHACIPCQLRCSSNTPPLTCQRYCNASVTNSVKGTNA
Test: SPR, IgG immobilised, human BCMA analyte
pKd: −log10 of the molar value.
This listing pairs binders with measured pKd.
value-kind: pKd

>>> value_observed("A02_Rd4_6nM_C08 (antibody, V domains shown, IgG) VH: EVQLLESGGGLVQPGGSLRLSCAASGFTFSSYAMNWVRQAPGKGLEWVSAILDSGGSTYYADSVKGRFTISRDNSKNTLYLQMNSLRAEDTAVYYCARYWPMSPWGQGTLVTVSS VL: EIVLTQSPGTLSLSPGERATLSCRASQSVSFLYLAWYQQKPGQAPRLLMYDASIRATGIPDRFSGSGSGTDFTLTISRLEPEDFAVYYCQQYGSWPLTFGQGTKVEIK")
9.73
>>> value_observed("COMBO_Rd4_0.6nM_C22 (antibody, V domains shown, IgG; also called COM22) VH: EVQLLESGGGLVQPGGSLRLSCAASGFTFSSYAMNWVRQAPGKGLEWVSAISDSGGSRWYADSVKGRFTISRDNSKNTLYLQMNSLRAEDTAVYYCTRYWPMDIWGQGTLVTVSS VL: EIVLTQSPGTLSLSPGERATLSCRASVRVSSTYLAWYQQKPGQAPRLLMYDASIRATGIPDRFSGSGSGTDFTLTISRLEPEDFAVYYCQQYMKWPLTFGQGTKVEIK")
10.44
>>> value_observed("COMBO_Rd4_0.6nM_C20 (antibody, V domains shown, IgG) VH: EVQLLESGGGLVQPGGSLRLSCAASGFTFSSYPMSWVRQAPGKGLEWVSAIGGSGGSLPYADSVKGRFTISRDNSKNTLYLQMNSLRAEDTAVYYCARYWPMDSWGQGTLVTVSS VL: EIVLTQSPGTLSLSPGERATLSCRASQSVSYLYLAWYQQKPGQAPRLLMYDASIRATGIPDRFSGSGSGTDFTLTISRLEPEDFAVYYCQQYMEWPLTFGQGTKVEIK")
10.72
